Entry source: patent US20260258410

Tested on: ADAR2 R2D E488Q (dsRBD2 + deaminase domain) E488Q (Homo sapiens), P78563-2
Sequence: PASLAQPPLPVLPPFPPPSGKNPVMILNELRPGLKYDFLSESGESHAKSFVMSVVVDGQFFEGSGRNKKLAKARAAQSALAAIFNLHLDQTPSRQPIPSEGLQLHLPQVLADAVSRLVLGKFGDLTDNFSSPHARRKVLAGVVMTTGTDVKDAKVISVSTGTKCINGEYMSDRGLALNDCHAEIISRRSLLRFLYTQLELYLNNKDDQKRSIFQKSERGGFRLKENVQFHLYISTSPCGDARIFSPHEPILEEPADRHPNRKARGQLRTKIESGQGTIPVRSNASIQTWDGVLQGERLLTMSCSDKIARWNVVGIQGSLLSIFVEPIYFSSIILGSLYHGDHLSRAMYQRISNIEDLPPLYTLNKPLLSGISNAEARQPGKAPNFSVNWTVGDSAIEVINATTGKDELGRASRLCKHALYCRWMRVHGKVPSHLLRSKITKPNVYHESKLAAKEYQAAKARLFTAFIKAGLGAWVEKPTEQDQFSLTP
procedure.details: EMSA
condition.details: 8-azanebularine at position 13 of SEQ 7; protein 0.25-256 nM
pKd: −log10 of the molar value.

- monomer.sequence: "GCUCGCGAUGCGNGAGGGCUCUGAUAGCUACG / CGUAGCUAUCAGAGCCCCCCGGCAUCGCGAGC [32 bp GLI1 GG RNA with 8-azanebularine]"
  pKd: 8.22
